Target: T1, human SIRPγ isoform 1 (human, UniProt Q9P1W8 29-147)
T1 construct: also called Gamma; Human SIRPg
T1 sequence (Q9P1W8 29-147 limits assumed): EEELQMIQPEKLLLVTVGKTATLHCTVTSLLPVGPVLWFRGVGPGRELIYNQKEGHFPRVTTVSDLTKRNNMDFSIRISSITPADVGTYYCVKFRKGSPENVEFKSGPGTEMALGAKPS
Assay: SPR Koff +/-
measured-quantity: binding result

>  <binder>
antibody 118 (antibody, V domains shown, also called S118) VH: VQLVESGGGVVRPGESLRLSCAASGFSFSSYAMNWVRQAPGEGLEWVSRINSGGGGTDYAESVKGRFTISRDNSENTLYLQMNSLRAEDTAVYYCAKQYDWNGFFDYWGLGALVTVSS VL: ETVLTQSPATLSVSPGERATLSCRASQTVGSKLAWHQQKPGQAPRLLIYDASRRATGIPDRFSGSGSGTDFTLTISSLQTEDSAVYYCQQYYYWPPYRFGGGTKVEIK

>  <binding result>
binds

$$$$
>  <binder>
antibody 209 (antibody, V domains shown, also called S209) VH: DVQLVESGGAVVRPGESLRLSCKASGFTFTNFAMSWVRQAPGEGLEWVSGISGSDDTTYYADSVKGRFTISRDNSESTLYLQMNSLRAEDTAVYYCVKDSTVSWNTFFDYWGLGTLVTVSS VL: ALTQPASVSANLGGTVKITCSGGYGSDDGSSSYYGWYQQKSPGSAPVILIYWDDKRPSDIPSRFSGSTSGSTTTLTITGVQAEDEAVYFCGTYDTSSGAIFGAGTTLTVL

>  <binding result>
no binding

$$$$
>  <binder>
antibody 115 (antibody, V domains shown, also called S115) VH: DVQLVESGGGVVRPGESLRLSCAASGFSFSSYAMNWVRQAPGEGLEWVSRINSGGGGTDYAESVKGRFTISRDNSENTLYLQMNSLRAEDTAVYYCAKQYDWNSFFDYWGLGALVTVSS VL: ETVLTQSPATLSVSPGERATLSCRASQTVGSKLAWHQQKPGQAPRLLIYDATNRATGISDRFSGSGSGTDFTLTISSLQTEDSAVYYCQQYYYWPPYRFGGGTKVEIK

>  <binding result>
binds

$$$$
>  <binder>
antibody 116 (antibody, V domains shown, also called S116) VH: VQLVESGGGVVRPGESLRLSCAASGFSFSSYAMNWVRQAPGEGLEWVSRINSGGGGTDYAESVKGRFTISRDNSENTLYLQMNSLRAEDTAVYYCAKQYDWNSFFDYWGLGALVTVSS VL: ETVLTQSPATLSVSPGERATLSCRASQTVGSKLAWHQQKPGQAPRLLIYDATNRATGISDRFSGSRSGTDFTLTISSLQTEDSAVYYCQQYYYWPPYRFGGGTKVEIK

>  <binding result>
binds

$$$$

Please turn your attention to the following entry.
Problem: Specify reported binding result for the binder shown: antibody 174 (antibody, V domains shown, also called S174) VH: DVQLVESGGGVVRPGESLRLSCAASGFTFSDHDMSWVRQGPGEGLEWVAGISLRGGVTWYADSVKGRFTISRDNSKNTLYLRLFSLRTEDTAIYYCARESWNTFFDYWGLGTLVTVSS VL: EIVLTQSPGTLSLSPGETATLSCRASQNVRSNLAWYQQKPGQAPRLLIYDASSRATGIPDRFSGSGSGTDFTLTISSLQSEDFAVYYCQQYGNGPPLTFGGGTKVEIK
Result: no binding
